# tgt: PARP-1 enzyme (Homo sapiens, UniProt P09874)
# Sequence (P09874 whole entry): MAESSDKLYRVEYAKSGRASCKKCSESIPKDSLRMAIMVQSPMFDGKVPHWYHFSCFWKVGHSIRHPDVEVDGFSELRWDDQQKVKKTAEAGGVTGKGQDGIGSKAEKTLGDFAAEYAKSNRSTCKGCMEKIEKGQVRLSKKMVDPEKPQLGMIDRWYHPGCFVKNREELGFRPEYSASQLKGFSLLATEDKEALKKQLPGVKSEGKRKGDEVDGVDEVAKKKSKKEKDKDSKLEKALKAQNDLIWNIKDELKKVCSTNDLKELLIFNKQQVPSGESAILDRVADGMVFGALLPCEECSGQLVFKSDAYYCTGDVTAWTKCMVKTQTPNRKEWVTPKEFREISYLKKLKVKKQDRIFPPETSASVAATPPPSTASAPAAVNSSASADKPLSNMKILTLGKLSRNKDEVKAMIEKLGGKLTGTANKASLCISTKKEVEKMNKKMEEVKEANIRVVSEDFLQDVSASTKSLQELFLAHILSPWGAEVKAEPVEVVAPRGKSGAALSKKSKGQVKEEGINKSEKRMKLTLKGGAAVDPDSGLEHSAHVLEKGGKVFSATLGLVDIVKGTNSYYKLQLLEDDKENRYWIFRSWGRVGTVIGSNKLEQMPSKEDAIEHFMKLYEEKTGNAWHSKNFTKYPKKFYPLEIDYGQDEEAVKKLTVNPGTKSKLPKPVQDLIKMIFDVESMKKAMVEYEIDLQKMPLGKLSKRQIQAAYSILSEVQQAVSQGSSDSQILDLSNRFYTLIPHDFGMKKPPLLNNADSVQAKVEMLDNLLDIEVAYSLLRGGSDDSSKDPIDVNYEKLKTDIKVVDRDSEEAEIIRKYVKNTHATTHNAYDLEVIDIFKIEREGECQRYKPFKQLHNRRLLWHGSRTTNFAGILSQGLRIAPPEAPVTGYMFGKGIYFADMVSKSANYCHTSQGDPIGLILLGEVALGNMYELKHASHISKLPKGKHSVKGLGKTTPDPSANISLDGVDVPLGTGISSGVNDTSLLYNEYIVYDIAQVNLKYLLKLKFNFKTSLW
# assay.name: In vitro scintillation proximity assay (SPA) for PARP-1 inhibitory activity
# Assay type: biochemical
# condition: [3H]-NAD+, nicked DNA, biotinylated histones; read-out: in vitro SPA assay PARP-1 pIC50 (converted)
IC50 vs 100 nM: less than gives Y; not less than gives N.

- O=C(c1ccc(F)cc1)C1CCN(CCc2nc3ccccc3c(=O)[nH]2)CC1 [Compound 9]: N

Q: Below 100 nM on IC50? Entry O=C(NC1CCN(CCCc2nc3ccccc3c(=O)[nH]2)CC1)c1ccccc1 [Compound 12]
Result: N

Q: Below 100 nM on IC50? Entry O=C(c1ccc(F)cc1)C1CCN(CCCc2nc3ccccc3c(=O)[nH]2)CC1 [Compound 14]
Result: Y

Q: Below 100 nM on IC50? Entry NC(=O)C1(N2CCOCC2)CCN(CCCc2nc3ccccc3c(=O)[nH]2)CC1 [Compound 11]
Result: N

Q: Below 100 nM on IC50? Entry O=C1NCN(c2ccccc2)C12CCN(CCCc1nc3ccccc3c(=O)[nH]1)CC2 [Compound 2]
Result: N

Q: Below 100 nM on IC50? Entry O=C(CC1CCN(CCc2nc3ccccc3c(=O)[nH]2)CC1)c1ccc(F)cc1 [Compound 3]
Result: N

Q: Below 100 nM on IC50? Entry NC(=O)C1(c2ccccc2)CCN(CCCc2nc3ccccc3c(=O)[nH]2)CC1 [Compound 4]
Result: Y

Q: Below 100 nM on IC50? Entry NC(=O)C1(c2ccccc2)CCN(CCCC2NC(=O)c3ccccc3N2)CC1 (centres unmarked) [Compound 5]
Result: Y

---

# tgt: PARP-1 enzyme (Homo sapiens)
# assay.name: In vitro scintillation proximity assay (SPA) for PARP-1 inhibitory activity
# Assay type: biochemical
# condition: [3H]-NAD+, nicked DNA, biotinylated histones; read-out: in vitro SPA assay PARP-1 pIC50 (converted)
Listed next: entries and their corresponding IC50.
Return type: number; implicit unit nM.

Reference set (2 entries):
* O=C1NC(CCCN2CCC(n3c(=O)[nH]c4ccccc43)CC2)Nc2ccccc21 (stereo not drawn) | 585
* O=C1NC(CCN2CCC3(CC2)C(=O)NCN3c2ccccc2)Nc2ccccc21 (stereo not drawn) | 178

Turning now to a further compound:
Q: Return IC50 for the following compound: O=C(NC1CCN(CCCC2NC(=O)c3ccccc3N2)CC1)c1ccccc1 (stereo not drawn)
Result: 236

---

# tgt: UniProt P09874
# assay.name: In vitro scintillation proximity assay (SPA) for PARP-1 inhibitory activity
# Format: biochemical
property.measured: IC50 (µM)
Return type: number; implicit unit µM.

Q: Return IC50 for the following compound: O=C1NC(CCN2CCC(n3c(=O)[nH]c4ccccc43)CC2)Nc2ccccc21 (stereo not shown) [Compound 13]
Result: 0.318

---

# tgt: TANK-2 enzyme (Homo sapiens, UniProt Q9H2K2)
# Construct: inferred from capture on Ni-coated flash plate; made in house
# Sequence (Q9H2K2 1-1166): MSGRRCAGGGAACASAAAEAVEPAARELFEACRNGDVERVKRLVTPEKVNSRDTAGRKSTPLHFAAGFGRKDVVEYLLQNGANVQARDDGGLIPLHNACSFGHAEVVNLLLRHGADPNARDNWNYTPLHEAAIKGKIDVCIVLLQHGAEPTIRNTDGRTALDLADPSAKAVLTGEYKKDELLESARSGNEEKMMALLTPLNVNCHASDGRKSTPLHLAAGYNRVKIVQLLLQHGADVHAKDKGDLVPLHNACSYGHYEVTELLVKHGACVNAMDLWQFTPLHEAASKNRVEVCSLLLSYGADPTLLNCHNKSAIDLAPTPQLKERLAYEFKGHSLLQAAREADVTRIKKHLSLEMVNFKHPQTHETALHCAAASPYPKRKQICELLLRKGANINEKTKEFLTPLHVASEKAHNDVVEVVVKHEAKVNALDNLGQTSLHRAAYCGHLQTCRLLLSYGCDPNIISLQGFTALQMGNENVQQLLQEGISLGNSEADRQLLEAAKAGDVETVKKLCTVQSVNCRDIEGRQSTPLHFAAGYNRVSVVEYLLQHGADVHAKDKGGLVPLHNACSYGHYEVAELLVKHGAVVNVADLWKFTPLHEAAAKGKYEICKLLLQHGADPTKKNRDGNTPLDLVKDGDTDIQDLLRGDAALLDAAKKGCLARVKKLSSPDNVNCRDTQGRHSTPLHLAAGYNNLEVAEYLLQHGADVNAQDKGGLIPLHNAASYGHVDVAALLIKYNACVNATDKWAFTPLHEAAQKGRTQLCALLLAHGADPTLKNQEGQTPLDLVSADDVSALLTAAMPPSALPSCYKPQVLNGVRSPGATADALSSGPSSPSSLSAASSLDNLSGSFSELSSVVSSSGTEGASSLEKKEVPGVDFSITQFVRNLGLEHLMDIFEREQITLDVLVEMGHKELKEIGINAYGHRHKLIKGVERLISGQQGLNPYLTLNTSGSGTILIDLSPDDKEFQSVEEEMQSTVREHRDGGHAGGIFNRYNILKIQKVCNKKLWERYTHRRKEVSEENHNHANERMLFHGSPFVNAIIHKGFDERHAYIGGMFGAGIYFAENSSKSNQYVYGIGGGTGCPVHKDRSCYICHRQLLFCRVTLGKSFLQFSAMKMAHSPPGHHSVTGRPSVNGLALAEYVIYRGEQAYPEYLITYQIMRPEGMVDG
# assay.name: In vitro scintillation proximity assay (SPA) for TANK-2 inhibitory activity
# Format: biochemical
# Protocol: In Vitro Scintillation Proximity Assay (SPA) for TANK-2 Inhibitory Activity Compounds of the present invention were tested in an in vitro assay based on SPA technology with Ni Flash plates (96 or 384 well). In principle, the assay relies upon SPA technology for the detection of auto-poly(ADP-ribosyl)ation of TANK-2 protein using [^3H]-nicotinamide adenine dinucleotide ([^3H]-NAD^+) as ADP-ribosyl donor. […]
property.measured: IC50

Q: Return IC50 for the following compound: O=C1NC(CCN2CCC(n3c(=O)[nH]c4ccccc43)CC2)Nc2ccccc21 (stereo not shown) [Compound 13]
Result: 938 nM

Cited source for all entries: patent US7875621B2
